- Test system: Ruminococcus gnavus DSM 108212
- assay.procedure: fold change of Tryptamine concentration vs plate DMSO controls (fold change (ratio)); higher = more amine produced, active = hit call of the paper (significant change in both replicates, either direction)
- protocol.conditions: incubation time: 27 h, anaerobic, 37 °C
Reported fold change of Tryptamine concentration values are given for each entry in this list.
measured.metric: fold change of Tryptamine concentration

compound	obs.value
CC1(C)[C@@H](O[C@H]2O[C@H](C(=O)O)[C@@H](O)[C@H](O)[C@H]2O[C@@H]2O[C@H](C(=O)O)[C@@H](O)[C@H](O)[C@H]2O)CC[C@]2(C)[C@H]3C(=O)C=C4[C@@H]5C[C@@](C)(C(=O)O)CC[C@]5(C)CC[C@@]4(C)[C@]3(C)CC[C@@H]12 [Glycyrrhizic acid] (50 µM)	1.05
CC(C)(CO)[C@@H](O)C(=O)NCCCO [(D)-Panthenol] (20 µM)	0.956
CC(C)=CCOc1ccc(/C=C/C(=O)c2ccc(OCC=C(C)C)cc2OCC(=O)O)cc1 [Sofalcone] (20 µM)	0.669

* * *

- Test system: Klebsiella aerogenes DSM 30053
- assay.procedure: fold change of Cadaverine concentration vs plate DMSO controls (fold change (ratio)); higher = more amine produced, active = hit call of the paper (significant change in both replicates, either direction)
- protocol.conditions: incubation time: 27 h, anaerobic, 37 °C
Where a name gives a salt, the structure may show the parent alone.

molecule	fold change of Cadaverine concentration
CCN(CCCCOC(=O)c1ccc(OC)c(OC)c1)C(C)Cc1ccc(OC)cc1 (centres undefined) [Mebeverine hydrochloride] (20 µM)	1.02
CCN(CC)CC#CCOC(=O)C(O)(c1ccccc1)C1CCCCC1 (centres undefined) [Oxybutynin chloride] (20 µM)	1.01
COc1ccc(CC(C)NCC(O)c2ccc(O)c(NC=O)c2)cc1 (centres undefined) [Formoterol fumarate] (20 µM)	1.09
CO/N=C(\C(=O)N[C@@H]1C(=O)N2C(C(=O)O)=C(COC(N)=O)CS[C@H]12)c1ccco1 [Cefuroxime sodium salt] (20 µM)	1.07

* * *

Reported fold change of Cadaverine concentration values are given for each entry in this list.
- Test system: Klebsiella aerogenes DSM 30053
- assay.procedure: fold change of Cadaverine concentration vs plate DMSO controls (fold change (ratio)); higher = more amine produced, active = hit call of the paper (significant change in both replicates, either direction)
- protocol.conditions: incubation time: 27 h, anaerobic, 37 °C
Counter-ions that a name gives are not always drawn.
measured.metric: fold change of Cadaverine concentration

compound	obs.value
COC(=O)[C@H]1[C@H]2C[C@@H]3c4[nH]c5cc(OC)ccc5c4CCN3C[C@H]2C[C@@H](OC(=O)c2cc(OC)c(OC)c(OC)c2)[C@@H]1OC [Reserpine] (20 µM)	1.01
CCN1CCC[C@H]1CNC(=O)c1c(O)c(Cl)cc(Cl)c1OC [Raclopride] (20 µM)	0.983
COc1ccccc1OCC(O)COC(N)=O (configuration not stated) [Methocarbamol] (20 µM)	0.987
OC(CCN1CCCCC1)(c1ccccc1)c1ccccc1 [Pridinol methanesulfonate salt] (20 µM)	0.997
NC(=O)NC1NC(=O)NC1=O (configuration not stated) [Allantoin] (20 µM)	1.02
Cc1cccc(Nc2ccccc2C(=O)O)c1C [Mefenamic acid] (20 µM)	0.995
CC1(C)O[C@@H]2C[C@H]3[C@@H]4C[C@H](F)C5=CC(=O)C=C[C@]5(C)[C@@]4(F)[C@@H](O)C[C@]3(C)[C@]2(C(=O)CO)O1 [Fluocinolone acetonide] (20 µM)	1

* * *

- Test system: Klebsiella aerogenes DSM 30053
- assay.procedure: growth (OD595) fold change vs plate DMSO controls (fold change (ratio)); higher = more growth
- protocol.conditions: incubation time: 27 h, anaerobic, 37 °C
Structures can show the parent of a compound that is named as a salt.
Could you label it y if measured growth is 1 or higher, and n otherwise?

compound	system.under.test	classification
Cc1cc2c(s1)Nc1ccccc1N=C2N1CCN(C)CC1 [Olanzapine] (20 µM)	Klebsiella aerogenes DSM 30053	y
CN(C)CCCN1c2ccccc2Sc2ccccc21 [Promazine hydrochloride] (20 µM)	Klebsiella aerogenes DSM 30053	n
Nc1nc2[nH]cc(CCc3ccc(C(=O)N[C@@H](CCC(=O)O)C(=O)O)cc3)c2c(=O)[nH]1 [Pemetrexed disodium] (20 µM)	Klebsiella aerogenes DSM 30053	n
CCCCOc1ccc(CC(=O)NO)cc1 [Bufexamac] (20 µM)	Klebsiella aerogenes DSM 30053	n

* * *

- System: Ruminococcus gnavus DSM 108212
- assay.procedure: fold change of 2-Phenylethylamine concentration vs plate DMSO controls (fold change (ratio)); higher = more amine produced, active = hit call of the paper (significant change in both replicates, either direction)
- protocol.conditions: incubation time: 27 h, anaerobic, 37 °C
Where a name gives a salt, the structure may show the parent alone.
measured.metric: fold change of 2-Phenylethylamine concentration

molecule	obs.value
CO[C@H]1/C=C/O[C@@]2(C)Oc3c(C)c(O)c4c(O)c(c5c(nc6cc(C)ccn65)c4c3C2=O)NC(=O)/C(C)=C\C=C\[C@H](C)[C@H](O)[C@@H](C)[C@@H](O)[C@@H](C)[C@H](OC(C)=O)[C@@H]1C [Rifaximin] (20 µM)	0.149
Cc1c(O)c(=O)n(-c2ccccc2)n1C [Antipyrine, 4-hydroxy] (20 µM)	0.932
N[C@@H]1CONC1=O [D-cycloserine] (20 µM)	0.868
CC[C@]12CCCN3CCc4c(n(c5ccccc45)[C@@](O)(C(=O)OC)C1)[C@@H]32 [Vincamine] (20 µM)	0.942
CCOC(=O)OC(C)OC1=C(C(=O)Nc2ccccn2)N(C)S(=O)(=O)c2ccccc21 (stereo unspecified) [Ampiroxicam] (20 µM)	0.99
CC(=O)O[C@H]1C(=O)[C@@]2(C)[C@H]([C@H](OC(=O)c3ccccc3)[C@]3(O)C[C@H](OC(=O)[C@H](O)[C@@H](NC(=O)c4ccccc4)c4ccccc4)C(C)=C1C3(C)C)[C@]1(OC(C)=O)CO[C@@H]1C[C@@H]2O [Paclitaxel] (20 µM)	1.07
CCOC(=O)OC(C)OC(=O)[C@@H]1N2C(=O)[C@@H](NC(=O)[C@H](N)c3ccccc3)[C@H]2SC1(C)C (stereo partly specified) [Bacampicillin hydrochloride] (20 µM)	0.0374
CO/N=C(\C(=O)N[C@@H]1C(=O)N2C(C(=O)[O-])=C(C[n+]3cccc4c3CCC4)CS[C@H]12)c1csc(N)n1 [Cefpirome sulfate] (20 µM)	0.0627
C[C@H](Cc1cc2c(c(C(N)=O)c1)N(CCCO)CC2)NCCOc1ccccc1OCC(F)(F)F [Silodosin] (20 µM)	0.999
O=c1[nH]c(=O)n([C@H]2C[C@H](O)[C@@H](CO)O2)cc1/C=C/Br [Brivudine] (20 µM)	1.08
CC1(C)S[C@@H]2[C@H](NC(=O)[C@H](N)c3ccccc3)C(=O)N2[C@H]1C(=O)O [Ampicillin sodium salt] (20 µM)	0.0719
O=S(=O)([O-])NC1CCCCC1.[Na+] [Sodium cyclamate] (50 µM)	1.02
O=C1O[C@H]([C@@H](O)CO)C(O)=C1O [Ascorbic acid] (20 µM)	1.03
CCn1cc(C(=O)O)c(=O)c2cc(F)c(N3CCNCC3)nc21 [Enoxacin] (20 µM)	0.905
Cc1cc(C(C)(C)C)cc(C)c1CC1=NCCN1 [Xylometazoline hydrochloride] (20 µM)	0.998
O=c1oc2cc(O)ccc2s1 [Tioxolone] (20 µM)	0.959
C=CCN1CCCC1CNC(=O)c1cc2nn[nH]c2cc1OC (stereo unspecified) [Alizapride hydrochloride] (20 µM)	1
Nc1ccc(C(=O)NCC(=O)O)cc1 [Aminohippuric acid] (20 µM)	1.03
CN1CCN(CCCN2c3ccccc3Sc3ccc(S(=O)(=O)N(C)C)cc32)CC1 [Thioproperazine dimesylate] (20 µM)	1.06
Oc1c(I)cc(Cl)c2cccnc12 [Clioquinol] (20 µM)	0.809
COC(=O)CCc1ccc(OCC(O)CNC(C)C)cc1 (stereo unspecified) [Esmolol hydrochloride] (20 µM)	1.07
Cc1cccc(C)c1NC(=O)CC12CCCN1CCC2 [Pilsicainide Hydrochloride] (20 µM)	1.06
Clc1cc(Cl)c(OCC#CI)cc1Cl [Haloprogin] (20 µM)	0.861
CCOC(=O)[C@H](CCc1ccccc1)N[C@H]1CS[C@H](c2cccs2)CN(CC(=O)O)C1=O [Temocapril hydrochloride] (20 µM)	1.01
O=P(O)(O)C(O)(Cn1ccnc1)P(=O)(O)O [Zoledronic acid hydrate] (20 µM)	0.627
CCCNC(C)(C)COC(=O)c1ccccc1 [Meprylcaine hydrochloride] (20 µM)	1.01
CC(C)(C)NC[C@H](O)COc1nsnc1N1CCOCC1 [Timolol maleate salt] (20 µM)	0.997
NCCCCCC(=O)O [Aminocaproic acid] (20 µM)	1.09
Nc1nc(F)nc2c1ncn2[C@@H]1O[C@H](CO)[C@@H](O)[C@@H]1O [Fludarabine] (20 µM)	0.838
Cc1ccc(O)c([C@H](CCN(C(C)C)C(C)C)c2ccccc2)c1 [Tolterodine tartrate] (20 µM)	0.994
c1cnc(N2CCN(Cc3ccc4c(c3)OCO4)CC2)nc1 [Piribedil] (20 µM)	0.991
